Measured protein stability index values are reported for all entries that follow.
B1: IKZF1 (parent)
chain: RDPFECNMCGYHSQDRYEFSSHIT

# Variants of: B1
# assaySummary: protein stability index of a GFP-peptide fusion (GPS, HEK-293T) (PSI 1-6); higher = more stable;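 note: lentivirally expressed fusions sorted by FACS into six bins by GFP to DsRed ratio, PSI derived from sequencing read proportions per bin multiplied by bin number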
# conditionLabel: c terminus: a fixed tail appended
// response body must contain only the number

Below, 4 variants whose answers are already recorded.
[[record]]
inputsequence = "RDPFECNMLGYHSQDRYEFSSHIT [C9L]"
obsvalue = 3.05

[[record]]
inputsequence = "RNPFECNMCGYHSQDRYEFSSHIT [D2N]"
obsvalue = 1.96

[[record]]
inputsequence = "RDPFECNSCGYHSQDRYEFSSHIT [M8S]"
obsvalue = 2.4

[[record]]
inputsequence = "RDPFECNMMGYHSQDRYEFSSHIT [C9M]"
obsvalue = 3.06


Per the records, this variant ( RDPFECNVCGYHSQDRYEFSSHIT [M8V] ) has protein stability index equal to 2.3

GET /value?item= RLPFECNMCGYHSQDRYEFSSHIT [D2L] &field=protein stability index returns 1.93

Query RDPFECNMCGYHSQDRYEFPSHIT [S20P] yields protein stability index of 2.51

// recorded protein stability index for RDPFECNMCGNHSQDRYEFSSHIT [Y11N] : 2.71

GET /value?item= RDPFECNMCGYHSMDRYEFSSHIT [Q14M] &field=protein stability index returns 1.86
